# System: 5-HT1 receptor (Bos taurus, UniProt F6Q2H9)
# Construct: calf hippocampus membrane preparations; from tissue; host or cells: calf hippocampus membranes
# Sequence (F6Q2H9 1-422): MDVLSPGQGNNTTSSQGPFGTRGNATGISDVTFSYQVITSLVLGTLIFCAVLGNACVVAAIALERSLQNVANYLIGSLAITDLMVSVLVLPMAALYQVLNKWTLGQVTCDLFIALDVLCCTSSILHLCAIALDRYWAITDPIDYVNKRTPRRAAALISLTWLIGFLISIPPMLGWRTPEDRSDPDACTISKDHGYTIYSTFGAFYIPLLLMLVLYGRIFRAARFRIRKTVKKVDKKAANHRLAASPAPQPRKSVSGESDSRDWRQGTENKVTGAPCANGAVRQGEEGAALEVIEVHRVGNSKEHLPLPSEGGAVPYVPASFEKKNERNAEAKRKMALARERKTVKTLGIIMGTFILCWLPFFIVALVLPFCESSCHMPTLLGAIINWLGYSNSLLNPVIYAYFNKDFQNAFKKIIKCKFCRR
# Run Description: Affinity for the 5-HT1 receptor: receptor binding studies using calf hippocampus membrane preparations, 3H-serotonin as radioligand
# Condition Description: calf hippocampus membranes; 3H-serotonin radioligand; read-out: Ki
pKi: −log10 of the molar value. Where a name gives a salt, the structure may show the parent alone.
Reported Endpoint: pKi

(1) N#Cc1ccccc1OC1CCN(CCCCN2C(=O)c3ccccc3S2(=O)=O)C1 (stereo not drawn) [Example 1, oxalate]
(2) O=C1c2ccccc2S(=O)(=O)N1CCCCN1CCC(Oc2cccc3ccccc23)C1 (stereo not drawn)
Hi there, can you help? I need to know whether 1 or 2 has lower measured pKi. Your answer should be the label of the entry you select.
1
(1: 8.70, 2: 9.52)

(I) COc1cccc(OC2CCN(CCCCN3C(=O)c4ccccc4S3(=O)=O)C2)c1 (stereo not drawn)
(II) COc1ccccc1OC1CCN(CCCCN2C(=O)c3ccccc3S2(=O)=O)C1 (stereo not drawn)
Which of the two gives a bigger number for pKi: I or II ? Your answer should be the label of the entry you select.
II

###

# System: 5-HT1 receptor (Bos taurus, UniProt F6Q2H9)
# Construct: calf hippocampus membrane preparations; from tissue; host or cells: calf hippocampus membranes
# Run Description: Affinity for the 5-HT1 receptor: receptor binding studies using calf hippocampus membrane preparations, 3H-serotonin as radioligand
# Condition Description: Comparison compound of DE-A 1,964,511; test conditions not restated; read-out: Ki value (comparison compound)
Reported Endpoint: Ki (nM)
# output: bare number, implied unit nM

So what's the measured Ki for this one? COc1ccccc1OC1CCN(C(C)C)C1 (stereo not shown) [Comparison, reference compound]
1000
